METHOD DESCRIPTION: Pharmacokinetics in rats after intravenous and peroral administration
Format: in vivo
DETAILS: rat, serum, po
Source text: Model 4: Pharmacokinetics in Rats After Intravenous and Peroral Administration The pharmacokinetic properties of the compounds according to the invention were studied in Examples 1: 4-[4,4-dimethyl-5-oxo-3-[8-(pyrrolidin-1-yl)octyl]-2-thioxoimidazolidin-1-yl]-2-(trifluoromethyl)benzonitrile and 11: 4-[3-[8-[(2S)-2-(hydroxymethyl)pyrrolidin-1-yl]octyl]-4,4-dimethyl-5-oxo-2-thioxoimidazolidin-1-yl]-2-(trifluoromethyl)benzonitrile.
PARAMETER MEASURED: bioavailability
Answers without a unit are incomplete; give the number and then its unit.

In [3]: df
Out[3]:
                                     smiles  result
0  CC1(C)C(=O)N(c2ccc(C#N)c(C(F)(F)F)c2)C(=S)N1CCCCCCCCN1CCC[C@H]1CO     65%

Give a short answer stating reported bioavailability for CC1(C)C(=O)N(c2ccc(C#N)c(C(F)(F)F)c2)C(=S)N1CCCCCCCCN1CCCC1 .
72%

====

METHOD DESCRIPTION: Pharmacokinetics in rats after intravenous and peroral administration
Format: in vivo
DETAILS: rat, serum, po, read-out: Half-Life p.o. T1/2 (converted)
PARAMETER MEASURED: half-life (h)
Only the number, expressed in h, is required.

>>> df
                                   compound  quantitative_readout
0  CC1(C)C(=O)N(c2ccc(C#N)c(C(F)(F)F)c2)C(=S)N1CCCCCCCCN1CCC[C@H]1CO [Example 11]                     8

Now, please, on to the next compound.
Report measured half-life; entry is CC1(C)C(=O)N(c2ccc(C#N)c(C(F)(F)F)c2)C(=S)N1CCCCCCCCN1CCCC1 [Example 1]
6.1

====

System: LNCaP cells
METHOD DESCRIPTION: Inhibition of the proliferation of LNCaP cells (crystal violet assay)
Assay type: cell-based, human
DETAILS: Homo sapiens, LNCaP, read-out: % Inhibition at 1 μM, 1 μM test substance, compared to cell growth in the presence of 0.1 nmol of R1881
Listing of entries alongside the reported inhibition at 1 µM.
Enter your answer as a number in %; do not include the unit.

                                   compound  system_under_test  parameter_measured  quantitative_readout
0  CC1(C)C(=O)N(c2ccc(C#N)c(C(F)(F)F)c2)C(=S)N1CCCCO [Example 77 USRe 35956, reference compound]        LNCaP cells  inhibition at 1 µM                    34
1  CC1(C)C(=O)N(c2ccc(C#N)c(C(F)(F)F)c2)C(=S)N1CCCCCCCCN1CCC[C@@H]1CO [Example 10]        LNCaP cells  inhibition at 1 µM                   101
2  CC1(C)C(=O)N(c2ccc(C#N)c(C(F)(F)F)c2)C(=S)N1CCCCCCCCN1CCCC1 [Example 1]        LNCaP cells  inhibition at 1 µM                    98

Look up and state reported inhibition at 1 µM for CC1(C)C(=O)N(c2ccc(C#N)c(C(F)(F)F)c2)C(=S)N1CCCCCCCCN1CCC[C@H]1CO [Example 11]
102
